Origin of the recorded values: patent US20250082754A1

Biological target: T1, human CD33 protein (human, UniProt P20138 18-259)
T1 construct: extracellular domain; It is not tied to the protein used in the screen, so it is not used here; also called recombinant human CD33 protein; CD33 ECD proteins
T1 sequence (P20138 18-259): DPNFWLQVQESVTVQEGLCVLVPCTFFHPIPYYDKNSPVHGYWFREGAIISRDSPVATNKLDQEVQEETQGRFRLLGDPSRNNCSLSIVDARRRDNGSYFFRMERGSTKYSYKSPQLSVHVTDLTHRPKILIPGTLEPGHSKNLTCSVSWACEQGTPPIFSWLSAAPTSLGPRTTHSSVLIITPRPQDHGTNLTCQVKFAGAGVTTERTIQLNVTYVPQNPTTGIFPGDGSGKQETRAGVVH
Test: SPR (BIACORE T200), antibody fragment captured by affinity tag, 100 nM human CD33 flowed over, estimate from one concentration; column KD; no unit printed on the sheet
Method: The scFv proteins in the supernatant were analyzed for their ability to bind to CD33 ECD proteins by ELISA and CD33-overexpressing MV4-11 cell lines by FACS. […] On-rate (kon) and off-rate (koff) were roughly calculated based on the association and dissociation of one antigen concentration, and were used to estimate the equilibrium dissociation constant (KD).
Metric Name: pKd
Scale explanation: pKd corresponds to minus log10 of a concentration expressed in moles per litre.

Ask | Can you share its pKd? I mean this binder: AS141962 (scFv, Format as for f1; also called anti-CD33 IgG1 AS141962; AS141962 scFv) scFv (VL-linker-VH): QAVLTQPSSVSGTPGQTVTISCAGTSSDVGSTNYVSWYRQLPGTAPKLLIYQVNYRASGIADRFSGSKSGNTASLTISGLQSADEADYYCASRSGNNFVFGGGTHLTVLGGGGSGGGGSGGGGSEVQLVESGGGLVQPGGSLRLSCAASGFTFSDFSIFWVRQAPGKGLEWVSSINFGGDRTYYADSVKGRFTISRNNAENTVYLQMNSLKAEDTAAYHCVTTAVALADCSGGCYTPGAFNAWGQGTLVTISS
Reply | 8.51
